Cited source: PubChem BioAssay AID1963845

# Test system: 429239-143-T-J1-PDC complex spheroid viability;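 further: luminescence signal used as surrogate measure of viable cells; spheroids exposed to compounds for seven days before readout; 100% = DMSO vehicle control viability as luminescence relative to vehicle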
# Assay remarks: Anticancer human tumor 429239-143-T-J1-PDC patient-derived small cell lung carcinoma cell line growth inhibition [POLQ]
# Measurement conditions: second compound 1 µM; first compound 1 µM; stronger effect = lower value
# Experimental: Multicellular complex tumor spheroid response to Polymerase (POL) inhibitors (novobiocin, ART-558, RP6685) in combination with a variety of drugs and investigational agents in selected tumor cell lines The POL inhibitors (novobiocin, ART-558, and RP6685) were evaluated both individually and in combination with standard of care and investigational anticancer small molecules within a complex spheroid model of solid tumors. . […]
Quick reference for viability, T/C among some molecules

Please review the following examples before continuing.
CC1COCCN1c1cc(C2(O)CC3CCC(C2)O3)c2cnn(-c3ccn[nH]3)c2n1 (stereo not given) + COC1C(OC(N)=O)C(O)C(Oc2ccc3c(O)c(NC(=O)c4ccc(O)c(CC=C(C)C)c4)c(=O)oc3c2C)OC1(C)C    7.99%
Nc1ccn(C2OC(CO)C(O)C2(F)F)c(=O)n1 (stereo not given) + COC1C(OC(N)=O)C(O)C(Oc2ccc3c(O)c(NC(=O)c4ccc(O)c(CC=C(C)C)c4)c(=O)oc3c2C)OC1(C)C    16.1%
CC1COCCN1c1cc(C2(O)CC3CCC(C2)O3)c2cnn(-c3ccn[nH]3)c2n1 (stereo not given) + Cc1cccc(N(C)C(=O)C2C(O)CCN2c2nc(C)cc(C(F)(F)F)c2C#N)c1    9.58%
CCc1cc2c(N3CCc4c(cc(Cn5ccnc5)cc4-c4cn(C)nc4C(F)(F)F)C3=O)cc(C)nc2c(OC)n1 + COC1C(OC(N)=O)C(O)C(Oc2ccc3c(O)c(NC(=O)c4ccc(O)c(CC=C(C)C)c4)c(=O)oc3c2C)OC1(C)C    69.1%

In one line, give reported viability, T/C of the entry CC1COCCN1c1cc(-c2ccnn2C)c2ccnc(-c3ccn[nH]3)c2n1 (stereo not given) + COC1C(OC(N)=O)C(O)C(Oc2ccc3c(O)c(NC(=O)c4ccc(O)c(CC=C(C)C)c4)c(=O)oc3c2C)OC1(C)C .
15.6%
